Values compiled from ChEMBL document CHEMBL3885881.

# Species: Rattus norvegicus
# TEST METHOD NOTES: DrugMatrix - Regimen: Daily Repeat
# Assay type: toxicity, organism-based, Sprague-Dawley
# Set-up: regimen Daily Repeat, gender Male, age 6-8 weeks
# REPORTED CONDITIONS: in vivo, po, 0 mg/kg, 72 h, tissue Plasma, route oral GAVAGE, dose level Control, time 3 day, vehicle 100 % SALINE
OBSERVABLE: CREATINE PHOSPHOKINASE (u/L)
Write the number in u/L without appending the unit.

Item under review: Cc1cc(CC(=O)O)n(C)c1C(=O)c1ccc(Cl)cc1 [ZOMEPIRAC] . Reported CREATINE PHOSPHOKINASE?
350.17

Item under review: CCCc1nn(C)c2c(=O)[nH]c(-c3cc(S(=O)(=O)N4CCN(C)CC4)ccc3OCC)nc12 . Reported CREATINE PHOSPHOKINASE?
248.33

Item under review: CC(=O)OCC(CCn1cnc2cnc(N)nc21)COC(C)=O . Reported CREATINE PHOSPHOKINASE?
248.33

Item under review: Oc1ccccc1O . Reported CREATINE PHOSPHOKINASE?
350.17

###

# Species on record: Rattus norvegicus
# TEST METHOD NOTES: DrugMatrix - Regimen: Daily Repeat
# Assay type: toxicity, organism-based, Sprague-Dawley
# Parameters: regimen Daily Repeat, gender Male, age 6-8 weeks
# REPORTED CONDITIONS: in vivo, po, 0 mg/kg, 120 h, tissue Blood, route oral GAVAGE, dose level Control, time 5 day, vehicle 100 % WATER
OBSERVABLE: EOSINOPHIL (%)
Write the number in % without appending the unit.

Item under review: CCCCCCCCCCCCCCCC[n+]1ccccc1.[Br-] . Reported EOSINOPHIL?
0.17

Item under review: CC[C@H]1OC(=O)[C@H](C)[C@@H](O[C@H]2C[C@@](C)(OC)[C@@H](O)[C@H](C)O2)[C@H](C)[C@@H](O[C@@H]2O[C@H](C)C[C@H](N(C)C)[C@H]2O)[C@](C)(O)C[C@@H](C)CN(C)[C@H](C)[C@@H](O)[C@]1(C)O . Reported EOSINOPHIL?
0.33

Item under review: CC[C@H]1OC(=O)[C@H](C)[C@@H](O[C@H]2C[C@@](C)(OC)[C@@H](O)[C@H](C)O2)[C@H](C)[C@@H](O[C@@H]2O[C@H](C)C[C@H](N(C)C)[C@H]2O)[C@](C)(OC)C[C@@H](C)C(=O)[C@H](C)[C@@H](O)[C@]1(C)O . Reported EOSINOPHIL?
0.5

Item under review: Nc1ccc(S(=O)(=O)Nc2ncccn2)cc1 . Reported EOSINOPHIL?
0.2

Item under review: CCN[C@@H](C)Cc1cccc(C(F)(F)F)c1 . Reported EOSINOPHIL?
0.2

Item under review: O=P1(N(CCCl)CCCl)NCCCO1 (stereo unspecified) [CYCLOPHOSPHAMIDE ANHYDROUS] . Reported EOSINOPHIL?
0.33

###

# Species on record: Rattus norvegicus
# TEST METHOD NOTES: DrugMatrix - Regimen: Daily Repeat
# Type: toxicity, organism-based, Sprague-Dawley
# Parameters: regimen Daily Repeat, gender Male, age 6-8 weeks
# REPORTED CONDITIONS: in vivo, po, 0 mg/kg, 120 h, tissue Plasma, route oral GAVAGE, dose level Control, time 5 day, […]
OBSERVABLE: CREATINE PHOSPHOKINASE (u/L)
Write the number in u/L without appending the unit.

Item under review: CC(CCc1ccc(O)cc1)NCCc1ccc(O)c(O)c1 (stereo not drawn) . Reported CREATINE PHOSPHOKINASE?
391.67

Item under review: CC(=O)Nc1nnc(S(N)(=O)=O)s1 [ACETAZOLAMIDE] . Reported CREATINE PHOSPHOKINASE?
263.67

Item under review: C#C[C@]1(O)CC[C@H]2[C@@H]3CCc4cc(O)ccc4[C@H]3CC[C@@]21C . Reported CREATINE PHOSPHOKINASE?
448.33

Item under review: COc1ncnc(NS(=O)(=O)c2ccc(N)cc2)c1OC . Reported CREATINE PHOSPHOKINASE?
263.67

Item under review: OCCN1CCN(CCCN2c3ccccc3Sc3ccc(C(F)(F)F)cc32)CC1 . Reported CREATINE PHOSPHOKINASE?
256.17

Item under review: CCn1cc(C(=O)O)c(=O)c2cc(F)c(N3CCNCC3)nc21 . Reported CREATINE PHOSPHOKINASE?
448.33

Item under review: CN(CCOc1ccc(CC2SC(=O)NC2=O)cc1)c1ccccn1 (stereo not drawn) . Reported CREATINE PHOSPHOKINASE?
411.33

Item under review: CC[C@H](C)C(=O)O[C@H]1C[C@@H](C)C=C2C=C[C@H](C)[C@H](CC[C@@H]3C[C@@H](O)CC(=O)O3)[C@H]21 . Reported CREATINE PHOSPHOKINASE?
199.33
